assay-explanation: Selectivity index, ratio of CC50 for cytotoxicity for human HT-1080 cells to IC50 for antitrypanosomal activity against Trypanosoma cruzi Tulahuen infected in human HT-1080 cells
Format: toxicity, cell-based
assay-conditions: read-out: Ratio CC50/IC50
Record form. Attribute: selectivity ratio. Fill in for each entry.

For the 3 compounds below, give their selectivity ratio values.
1. COc1c([C@H]2OC[C@H]3[C@H]2CO[C@@H]3c2ccc3c(c2)OCO3)ccc2c1OCO2
2. CCOc1ccc([C@@H]2OC[C@H]([C@H](O)c3ccc(OC)c(OC)c3)[C@H]2COC(C)=O)cc1OC
3. COc1ccc([C@@H](O)[C@H]2CO[C@@H](c3ccc(OC)c(OC)c3)[C@@H]2COC(C)=O)cc1OC

*A*
> 250
> 30.3
> 9.52

For the 2 compounds below, give their selectivity ratio values.
1. O=C(Cn1ccnc1[N+](=O)[O-])NCc1ccccc1
2. COc1ccc([C@@H](O)[C@H]2CO[C@@H](c3ccc(OCc4ccccc4)c(OC)c3)[C@@H]2COC(C)=O)cc1OC

*A*
["> 90.9", "> 35.7"]

Values were extracted from ChEMBL document CHEMBL5620440.
